Measured values drawn from the Human Domainome abundance scans (Beltran et al. 2025) for this set.

Each entry below carries its reported abundance fitness.
B1: DnaJ homolog subfamily C member 5, residues 16 to 77; numbered along this chain, Q9H3Z4 (parent)
chain: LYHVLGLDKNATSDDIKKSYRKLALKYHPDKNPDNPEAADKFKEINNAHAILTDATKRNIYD

Variants of: B1
experiment-description: abundance fitness (aPCA) (normalised: wild type 0, dead -1); higher = more abundant; growth selection in yeast, the domain comes from the species named
test-settings: Homo sapiens

See these solved cases before continuing.
LYHVLGLDKNATSDDIKKSYRKLALKYHPDKNPDNPEAADKFKEINNAHAILTDATQRNIYD : -0.1
LYHVLGLDKNATSDDIKKSYRLLALKYHPDKNPDNPEAADKFKEINNAHAILTDATKRNIYD : 0.039
LYHVLGLDKNATSDDIKKSYRKLALKYHPDKNPPNPEAADKFKEINNAHAILTDATKRNIYD : -0.623
LYHVLGLDKNATSDDIKKSYRKLALKYHPDKNPDNPEAGDKFKEINNAHAILTDATKRNIYD : -0.032

Now look at this entry.
I am curious: what abundance fitness value has been reported for LYHVLGLDKRATSDDIKKSYRKLALKYHPDKNPDNPEAADKFKEINNAHAILTDATKRNIYD ?
-0.464
